Tested on: Lung
Test: Biodistribution in Sprague-Dawley rat lung at 15 uCi, iv after 30 mins
Assay type: ADME, organism-based
Details: in vivo, 0.5 h
Quick rule for you: Drug uptake at 0.1 % ID/g or higher means t, lower means f.

Sample answers from the record:
Compound	Target Of Assay	Cat
CC(C)(C)n1ncc(OCc2ccc(COCCF)cc2)c(Cl)c1=O	Lung	t
[2H]C([2H])(Oc1cnn(C(C)(C)C)c(=O)c1Cl)c1ccc(COC([2H])([2H])C([2H])([2H])F)cc1	Lung	t
CCC(CF)Oc1ccc(COc2cnn(C(C)(C)C)c(=O)c2Cl)cc1 (configuration not stated)	Lung	t
CC(C)(C)n1ncc(OCc2ccc(OCCCF)cc2)c(Cl)c1=O	Lung	t
CC(F)CCc1ccc(COc2cnn(C(C)(C)C)c(=O)c2Cl)cc1 (configuration not stated)	Lung	t

Proceed to the following item.
Given the entry `CC(C)(C)n1ncc(OCc2ccc(CCCCF)cc2)c(Cl)c1=O` , answer whether its Drug uptake meets or surpasses 0.1 % ID/g.
f

====

Give measured Activity for each item. Keep answers brief.
Test: Ratio of drug uptake in heart to femur of Sprague-Dawley rat at 15 uCi, iv after30 mins
Assay type: ADME, organism-based
Details: in vivo, 0.5 h
Answers are plain numbers.

Molecule	Measured Quantity	Quantitative Result
[2H]C([2H])(Oc1cnn(C(C)(C)C)c(=O)c1Cl)c1ccc(COC([2H])([2H])C([2H])([2H])F)cc1	Activity	4.6
CC(F)COc1ccc(COc2cnn(C(C)(C)C)c(=O)c2Cl)cc1 (configuration not stated)	Activity	0.4
CCC(CF)Oc1ccc(COc2cnn(C(C)(C)C)c(=O)c2Cl)cc1 (configuration not stated)	Activity	0.89
CC(C)(C)n1ncc(OCc2ccc(OCCCF)cc2)c(Cl)c1=O	Activity	2
CC(F)CCc1ccc(COc2cnn(C(C)(C)C)c(=O)c2Cl)cc1 (configuration not stated)	Activity	1.98

# batch size: 2; output Activity per entry
1. CC(C)(C)n1ncc(OCc2ccc(COCCF)cc2)c(Cl)c1=O
2. CC(C)(C)n1ncc(OCc2ccc(CCCCF)cc2)c(Cl)c1=O

7.51
6.84

====

Tested on: Blood
Assay: Biodistribution in Sprague-Dawley rat blood at 15 uCi, iv after 120 mins
Type: ADME, organism-based
Details: in vivo, 2 h
Please respond with reported Drug uptake for every item in the list.
One number for each entry, in % ID/g.

Molecule	Drug uptake, % ID/g
CC(C)(C)n1ncc(OCc2ccc(OCCCF)cc2)c(Cl)c1=O	0.07
CCC(CF)Oc1ccc(COc2cnn(C(C)(C)C)c(=O)c2Cl)cc1 (stereo unspecified)	0.06
CC(C)(C)n1ncc(OCc2ccc(COCCF)cc2)c(Cl)c1=O	0.19
CC(F)COc1ccc(COc2cnn(C(C)(C)C)c(=O)c2Cl)cc1 (stereo unspecified)	0.04
[2H]C([2H])(Oc1cnn(C(C)(C)C)c(=O)c1Cl)c1ccc(COC([2H])([2H])C([2H])([2H])F)cc1	0.1

Request the reported Drug uptake associated with `CC(C)(C)n1ncc(OCc2ccc(CCCCF)cc2)c(Cl)c1=O`
0.04

====

Test system: Liver
Test: Biodistribution in Sprague-Dawley rat liver at 15 uCi, iv after 30 mins
Assay type: ADME, organism-based
Conditions: in vivo, 0.5 h
I'd appreciate it if you could supply Drug uptake values for the items below.
Give bare numbers, in % ID/g.

Recorded Drug uptake, per entry:
Compound	Quantitative Result
CCC(CF)Oc1ccc(COc2cnn(C(C)(C)C)c(=O)c2Cl)cc1 (configuration not stated)	0.98
CC(F)CCc1ccc(COc2cnn(C(C)(C)C)c(=O)c2Cl)cc1 (configuration not stated)	1.27
CC(C)(C)n1ncc(OCc2ccc(OCCCF)cc2)c(Cl)c1=O	1.7
CC(C)(C)n1ncc(OCc2ccc(CCCCF)cc2)c(Cl)c1=O	2.03
CC(F)COc1ccc(COc2cnn(C(C)(C)C)c(=O)c2Cl)cc1 (configuration not stated)	0.44
CC(C)(C)n1ncc(OCc2ccc(COCCF)cc2)c(Cl)c1=O [FLURPIRIDAZ]	1.25

For `[2H]C([2H])(Oc1cnn(C(C)(C)C)c(=O)c1Cl)c1ccc(COC([2H])([2H])C([2H])([2H])F)cc1` , what is its reported Drug uptake?
0.64
